Measured On: ER ectodomain fused to GFP (ERΔK-GFP) (Arabidopsis)
Protocol Notes: co-IP
Measurement Type: pIC50
API: returns pIC50 as number; meaning -log10 of concentration in mol/L.

GET /values?readout=pIC50&item= IGSTAPTCTYNECRGCRYKCRAEQVPVEGNDPINSAYHYRCVCHR [Stomagen/EPF-LIKE9 peptide (bioactive Stomagen)]
6.34
